Values compiled from ChEMBL document CHEMBL4043276.

molecular target: Cholinesterase (Equus caballus)
Sequence (P81908 whole entry): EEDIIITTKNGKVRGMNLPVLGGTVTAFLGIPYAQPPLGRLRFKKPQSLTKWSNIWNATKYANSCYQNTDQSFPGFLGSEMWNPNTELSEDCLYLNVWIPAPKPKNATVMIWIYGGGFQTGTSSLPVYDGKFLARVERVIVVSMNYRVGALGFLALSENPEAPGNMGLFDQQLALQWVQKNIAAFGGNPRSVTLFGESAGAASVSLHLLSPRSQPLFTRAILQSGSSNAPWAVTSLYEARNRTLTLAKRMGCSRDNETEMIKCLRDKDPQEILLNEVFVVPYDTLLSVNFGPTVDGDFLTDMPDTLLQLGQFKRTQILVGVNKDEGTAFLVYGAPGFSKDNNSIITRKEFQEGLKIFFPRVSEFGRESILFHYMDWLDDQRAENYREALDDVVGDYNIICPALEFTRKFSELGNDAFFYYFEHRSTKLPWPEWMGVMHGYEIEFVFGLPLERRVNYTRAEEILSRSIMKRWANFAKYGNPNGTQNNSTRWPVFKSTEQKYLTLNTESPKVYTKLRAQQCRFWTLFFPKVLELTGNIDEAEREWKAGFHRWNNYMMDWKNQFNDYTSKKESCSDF
Result Type: pIC50
Here pIC50 is given on a logarithmic scale as minus log10 of the concentration in mol/L.

These recorded examples may help you get a feel for the data.
>  <Structure As Smiles>
CC(=O)c1ccc(OCCCCCN2CCCC2)cc1O

>  <System Name>
Cholinesterase (Equus caballus)

>  <pIC50>
4.43

$$$$
>  <Structure As Smiles>
CC(=O)c1ccc(OCCCCCN2CCN(Cc3ccccc3)CC2)cc1O

>  <System Name>
Cholinesterase (Equus caballus)

>  <pIC50>
4.34

$$$$
>  <Structure As Smiles>
CC(=O)c1ccc(OCCCN2CCN(Cc3ccccc3)CC2)cc1O

>  <System Name>
Cholinesterase (Equus caballus)

>  <pIC50>
4.50

$$$$
>  <Structure As Smiles>
CC(=O)c1ccc(OCCCCCN2CCN(c3ncccn3)CC2)cc1O

>  <System Name>
Cholinesterase (Equus caballus)

>  <pIC50>
3.86

$$$$
>  <Structure As Smiles>
CC(=O)c1ccc(OCCCCCCN2CCCC2)cc1O

>  <System Name>
Cholinesterase (Equus caballus)

>  <pIC50>
4.33

$$$$
>  <Structure As Smiles>
CC(=O)c1ccc(OCCCCCCN2CCCCC2)cc1O

>  <System Name>
Cholinesterase (Equus caballus)

>  <pIC50>
4.34

$$$$

Let us examine a further case.
Lab request: please report pIC50 under test system Cholinesterase (Equus caballus) for CC(=O)c1ccc(OCCCCCCN2CCN(Cc3ccccc3)CC2)cc1O
4.12

----------
Let's look at some compounds and their measured Ratio IC50.
assay: Selectivity index, ratio of IC50 for equine serum BuChE to IC50 for electric eel AChE
Answer field: number only, no words.

These recorded examples may help you get a feel for the data.
>  <Structure As Smiles>
CC(=O)c1ccc(OCCCCCN2CCN(Cc3ccccc3)CC2)cc1O

>  <Result Type>
Ratio IC50

>  <Observed Result>
5.4

$$$$
>  <Structure As Smiles>
CC(=O)c1ccc(OCCCCCN2CCN(c3ncccn3)CC2)cc1O

>  <Result Type>
Ratio IC50

>  <Observed Result>
2.6

$$$$
>  <Structure As Smiles>
CC(=O)c1ccc(OCCCCCCN2CCCCC2)cc1O

>  <Result Type>
Ratio IC50

>  <Observed Result>
15.8

$$$$
>  <Structure As Smiles>
CC(=O)c1ccc(OCCCCCCN2CCCC2)cc1O

>  <Result Type>
Ratio IC50

>  <Observed Result>
11.9

$$$$
>  <Structure As Smiles>
CC(=O)c1ccc(OCCCCCN2CCCC2)cc1O

>  <Result Type>
Ratio IC50

>  <Observed Result>
5.9

$$$$
>  <Structure As Smiles>
CC(=O)c1ccc(OCCCCCCN2CCN(Cc3ccccc3)CC2)cc1O

>  <Result Type>
Ratio IC50

>  <Observed Result>
4.5

$$$$

Let us examine a further case.
Any idea what Ratio IC50 was measured for CC(=O)c1ccc(OCCCN2CCN(Cc3ccccc3)CC2)cc1O ?
32.7

----------
target: UniProt:P81908; assay: Inhibition of equine serum BuChE at 50 uM incubated for 15 mins by Ellman's method relative to control; conditions: horse
Result Type: inhibition at 0.25 h, 50 µM

These recorded examples may help you get a feel for the data.
>  <Structure As Smiles>
CC(=O)c1ccc(OCCCN2CCCCC2)cc1O

>  <inhibition at 0.25 h, 50 µM>
< 5%

$$$$
>  <Structure As Smiles>
CC(=O)c1ccc(OCCCCCCN2CCN(c3ncccn3)CC2)cc1O

>  <inhibition at 0.25 h, 50 µM>
< 5%

$$$$
>  <Structure As Smiles>
CC(=O)c1ccc(OCCCCCCN2CCN(c3ccccn3)CC2)cc1O

>  <inhibition at 0.25 h, 50 µM>
< 5%

$$$$
>  <Structure As Smiles>
CC(=O)c1ccc(O)cc1O

>  <inhibition at 0.25 h, 50 µM>
< 5%

$$$$
>  <Structure As Smiles>
CC(=O)c1ccc(OCCCCN2CCN(Cc3ccccc3)CC2)cc1O

>  <inhibition at 0.25 h, 50 µM>
11.5%

$$$$

Any idea what inhibition at 0.25 h, 50 µM was measured for CC(=O)c1ccc(OCCCN2CCN(c3ccccn3)CC2)cc1O ?
8.8%

Any idea what inhibition at 0.25 h, 50 µM was measured for CC(=O)c1ccc(OCCCCN2CCN(c3ncccn3)CC2)cc1O ?
< 5%

Any idea what inhibition at 0.25 h, 50 µM was measured for CC(=O)c1ccc(OCCCCN2CCCCC2)cc1O ?
21.4%

Any idea what inhibition at 0.25 h, 50 µM was measured for CC(=O)c1ccc(OCCCN2CCN(c3ncccn3)CC2)cc1O ?
< 5%

Any idea what inhibition at 0.25 h, 50 µM was measured for CC(=O)c1ccc(OCCCCN2CCCC2)cc1O ?
18.4%

Any idea what inhibition at 0.25 h, 50 µM was measured for CC(=O)c1ccc(OCCCCN2CCN(c3ccccn3)CC2)cc1O ?
< 5%

Any idea what inhibition at 0.25 h, 50 µM was measured for CC(=O)c1ccc(OCCCN2CCCC2)cc1O ?
< 5%

Any idea what inhibition at 0.25 h, 50 µM was measured for CC(=O)c1ccc(OCCCCCN2CCN(c3ccccn3)CC2)cc1O ?
< 5%

Any idea what inhibition at 0.25 h, 50 µM was measured for CC(=O)c1ccc(OCCCCCN2CCCCC2)cc1O ?
27.9%

----------
assay: Effective permeability of the compound by PAMPA; assay type: physicochemical; conditions: read-out: Peff
Result Type: Papp

These recorded examples may help you get a feel for the data.
>  <Molecule>
CCn1cc(C(=O)O)c(=O)c2cc(F)c(N3CCNCC3)cc21 [NORFLOXACIN]

>  <Result Type>
Papp

>  <Observed Result>
1 to 4.2 nm/s

$$$$
>  <Molecule>
Cn1c(=O)c2[nH]cnc2n(C)c1=O.O [THEOPHYLLINE]

>  <Result Type>
Papp

>  <Observed Result>
1 to 1.2 nm/s

$$$$
>  <Molecule>
CCn1cc(C(=O)O)c(=O)c2cc(F)c(N3CCNCC3)nc21 [ENOXACIN]

>  <Result Type>
Papp

>  <Observed Result>
4.7 to 9 nm/s

$$$$

Any idea what Papp was measured for C[C@]12CC[C@H]3[C@@H](CCC4=CC(=O)CC[C@@]43C)[C@@H]1CC[C@@H]2O [TESTOSTERONE] ?
163 to 170 nm/s

----------
molecular target: Acetylcholinesterase (Electrophorus electricus, UniProt O42275)
Sequence (O42275 whole entry): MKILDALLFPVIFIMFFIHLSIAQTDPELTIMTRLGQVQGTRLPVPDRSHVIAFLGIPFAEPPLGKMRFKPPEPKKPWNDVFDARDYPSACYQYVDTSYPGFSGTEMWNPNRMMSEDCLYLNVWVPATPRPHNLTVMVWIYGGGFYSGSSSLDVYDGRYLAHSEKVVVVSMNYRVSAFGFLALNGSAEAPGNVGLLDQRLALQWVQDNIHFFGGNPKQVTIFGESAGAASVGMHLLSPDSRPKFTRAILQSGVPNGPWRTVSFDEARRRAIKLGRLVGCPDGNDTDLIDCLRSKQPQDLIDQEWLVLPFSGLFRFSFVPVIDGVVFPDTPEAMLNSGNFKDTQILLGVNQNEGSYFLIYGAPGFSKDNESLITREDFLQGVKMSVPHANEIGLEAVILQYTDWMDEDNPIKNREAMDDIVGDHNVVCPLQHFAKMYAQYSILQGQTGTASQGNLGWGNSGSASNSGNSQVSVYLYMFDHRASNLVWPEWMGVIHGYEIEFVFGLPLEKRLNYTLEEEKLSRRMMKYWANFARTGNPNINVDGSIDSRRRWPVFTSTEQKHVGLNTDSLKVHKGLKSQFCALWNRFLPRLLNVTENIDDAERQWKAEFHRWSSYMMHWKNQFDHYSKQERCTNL
pIC50: −log10 of the molar value.
Binary classification by pIC50, with 5 as an inclusive lower bound for fulfilled; all other cases are not fulfilled.

>  <Structure As Smiles>
CC(=O)c1ccc(OCCCCCN2CCCC2)cc1O

>  <System Name>
Acetylcholinesterase (Electrophorus electricus, UniProt O42275)

>  <Assigned Category>
fulfilled

$$$$
>  <Structure As Smiles>
CC(=O)c1ccc(OCCCN2CCN(Cc3ccccc3)CC2)cc1O

>  <System Name>
Acetylcholinesterase (Electrophorus electricus, UniProt O42275)

>  <Assigned Category>
fulfilled

$$$$
>  <Structure As Smiles>
CC(=O)c1ccc(OCCCCN2CCN(c3ccccn3)CC2)cc1O

>  <System Name>
Acetylcholinesterase (Electrophorus electricus, UniProt O42275)

>  <Assigned Category>
not fulfilled

$$$$
>  <Structure As Smiles>
CC(=O)c1ccc(OCCCCCCN2CCCCC2)cc1O

>  <System Name>
Acetylcholinesterase (Electrophorus electricus, UniProt O42275)

>  <Assigned Category>
fulfilled

$$$$
>  <Structure As Smiles>
CC(=O)c1ccc(OCCCCN2CCN(Cc3ccccc3)CC2)cc1O

>  <System Name>
Acetylcholinesterase (Electrophorus electricus, UniProt O42275)

>  <Assigned Category>
fulfilled

$$$$

Okay, now this compound:
Determine whether this compound has pIC50 no lower than 5: CC(=O)c1ccc(OCCCCN2CCN(c3ncccn3)CC2)cc1O
not fulfilled

----------
target: Acetylcholinesterase (Electrophorus electricus, UniProt O42275)
Result Type: IC50 (µM)
Numbers only here, please. The scale is µM.

>  <Structure As Smiles>
CC(=O)c1ccc(OCCCCN2CCCCC2)cc1O

>  <System Name>
Acetylcholinesterase (Electrophorus electricus, UniProt O42275)

>  <IC50 [µM]>
8.8

$$$$
>  <Structure As Smiles>
CC(=O)c1ccc(OCCCCCN2CCN(Cc3ccccc3)CC2)cc1O

>  <System Name>
Acetylcholinesterase (Electrophorus electricus, UniProt O42275)

>  <IC50 [µM]>
8.5

$$$$
>  <Structure As Smiles>
CC(=O)c1ccc(OCCCN2CCCCC2)cc1O

>  <System Name>
Acetylcholinesterase (Electrophorus electricus, UniProt O42275)

>  <IC50 [µM]>
29.2

$$$$
>  <Structure As Smiles>
CC(=O)c1ccc(OCCCN2CCN(c3ccccn3)CC2)cc1O

>  <System Name>
Acetylcholinesterase (Electrophorus electricus, UniProt O42275)

>  <IC50 [µM]>
15.2

$$$$
>  <Structure As Smiles>
CC(=O)c1ccc(OCCCCCN2CCN(c3ncccn3)CC2)cc1O

>  <System Name>
Acetylcholinesterase (Electrophorus electricus, UniProt O42275)

>  <IC50 [µM]>
51.8

$$$$

Let us examine a further case.
Any idea what IC50 was measured for CC(=O)c1ccc(OCCCCCCN2CCN(c3ncccn3)CC2)cc1O ?
57
